ASSAY COMMENT: Half life in Wistar rat at 5 mg/kg, iv
Assay type: ADME, organism-based
Design: dose 5 mg/kg, route intravenous
MEASUREMENT SETUP: in vivo
MEASURED PROPERTY: half-life (h)
Reply numerically in h, unit not repeated.

**Q:** Quote half-life reported for COCCN(C)c1ccc(NC(=O)c2nc(-c3ccccc3)oc2C(F)(F)F)cn1 please.
**A:** 1.95

* * *

ASSAY COMMENT: Kinetic solubility of the compound in phosphate buffered saline at pH 6.5
Format: physicochemical
MEASUREMENT SETUP: read-out: Kinetic_solubility
MEASURED PROPERTY: solubility kinetic

**Q:** Fill in reported solubility kinetic for this entry: COCCN(C)c1ccc(NC(=O)c2nc(-c3ccccc3)oc2C(F)(F)F)cn1
**A:** 1 µg/mL

Source: ChEMBL document CHEMBL1921801
